- Study target: T1, recombinant human LTBP1-proTGFβ1 complex (Homo sapiens, UniProt P01137)
- T1 construct: made in house; host or cells: Expi293F cells, transient co-transfection
- T1 sequence (P01137 30-390): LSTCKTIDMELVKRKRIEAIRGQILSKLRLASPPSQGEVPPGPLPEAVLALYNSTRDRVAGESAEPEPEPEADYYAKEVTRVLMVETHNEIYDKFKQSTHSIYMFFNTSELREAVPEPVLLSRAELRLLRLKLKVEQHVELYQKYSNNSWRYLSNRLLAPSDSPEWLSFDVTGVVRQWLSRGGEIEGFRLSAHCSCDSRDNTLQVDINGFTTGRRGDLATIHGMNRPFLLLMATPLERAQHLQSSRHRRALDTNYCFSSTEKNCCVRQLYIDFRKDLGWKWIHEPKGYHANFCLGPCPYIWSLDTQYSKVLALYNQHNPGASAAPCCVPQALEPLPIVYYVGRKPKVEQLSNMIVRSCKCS
- T1 sequence (Q14766 873-1507 partner): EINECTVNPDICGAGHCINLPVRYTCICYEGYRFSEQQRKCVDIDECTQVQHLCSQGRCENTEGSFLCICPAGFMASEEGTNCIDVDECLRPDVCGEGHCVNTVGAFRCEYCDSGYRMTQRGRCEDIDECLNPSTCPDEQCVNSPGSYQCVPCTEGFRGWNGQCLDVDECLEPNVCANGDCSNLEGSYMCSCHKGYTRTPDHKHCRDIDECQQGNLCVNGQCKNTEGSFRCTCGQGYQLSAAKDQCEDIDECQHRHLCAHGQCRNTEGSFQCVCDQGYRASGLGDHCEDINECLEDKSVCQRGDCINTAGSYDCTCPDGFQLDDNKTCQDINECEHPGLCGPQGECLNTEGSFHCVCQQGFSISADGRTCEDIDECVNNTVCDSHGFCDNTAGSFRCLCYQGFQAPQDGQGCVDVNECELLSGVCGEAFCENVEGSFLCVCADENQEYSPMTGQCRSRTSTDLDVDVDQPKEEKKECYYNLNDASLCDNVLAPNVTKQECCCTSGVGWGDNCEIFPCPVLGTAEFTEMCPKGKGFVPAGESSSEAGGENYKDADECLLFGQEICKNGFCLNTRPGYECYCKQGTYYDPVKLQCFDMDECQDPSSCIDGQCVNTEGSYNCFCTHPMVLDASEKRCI
- Procedure text: Octet (Biolayer Interferometry) in vitro kinetic binding
- Test parameters: in M
Assay readout: (B) hLTBP1, Matrix-associated proTGFb1 (KD)
Kindly provide the number alone.

Task: Which (B) hLTBP1, Matrix-associated proTGFb1 (KD) value belongs to Ab18: monoclonal antibody; VH SEQ ID NO: 249, VL SEQ ID NO: 241 (antibody, V domains shown) VH: QVQLVESGGGVVQPGRSLRLSCAASGFTFSDYAMVWVRQAPGKGLEWVSAISGSGAATYFADSVKGRFTISRDNSKNTLYLQMNSLRAEDTAVYYCATVSSGHWDFDYWGQGTLVTVSS VL: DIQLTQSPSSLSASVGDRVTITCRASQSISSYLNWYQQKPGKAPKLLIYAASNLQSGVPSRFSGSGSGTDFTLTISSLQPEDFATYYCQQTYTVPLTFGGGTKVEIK ?
Output: 3.12E−10
